Subject of test: POLγA:G848S (Homo sapiens, UniProt P54098, G848S)
Experiment description: DNA polymerization assay, POLγA:G848S mutant
Type: biochemical
Measurement conditions: stimulation of polymerase activity, primed M13mp18 ssDNA, 37° C. 2 hours; read-out: G848S AC50
Observed property: AC50 (µM)

Compound	AC50 (µM)
COCCNC(=O)c1cccc(NS(=O)(=O)c2cc(C)c(Cl)cc2C)c1 [Example 47]	39

(a) Cc1cc(Cl)ccc1S(=O)(=O)Nc1csc(-c2ccccc2)n1 [Example 135]
(b) Cc1cc(S(=O)(=O)Nc2cccc(-c3ncc(C(N)=O)s3)c2)c(C)cc1Cl [Example 92]
(c) Cc1cc(S(=O)(=O)Nc2cccc(C(N)=O)c2)c(C)cc1Cl [Example 44]
(d) Cc1cc(S(=O)(=O)Nc2cccc(-c3nccn3C)c2)c(C)cc1Cl [Example 19]
q: Descending sort on AC50 required. I would appreciate it if you listed the labels in the requested order.
a: c, d, a, b

(I) Cc1cc(S(=O)(=O)Nc2csc(C(=O)N3CCCC3)n2)c(C)cc1Cl [Example 166]
(II) Cc1cc(S(=O)(=O)Nc2cccc(C(=O)N(C)C(C)CO)c2)c(C)cc1Cl (single isomer, unassigned) [Example 14]
(III) Cc1cc(S(=O)(=O)Nc2csc(-c3ccnn3C)n2)c(C)cc1Cl [Example 182]
(IV) Cc1ccc(C)c(S(=O)(=O)Nc2cccc(C(=O)N3CCCCCC3)c2)c1 [Example 32]
(V) Cc1cc(S(=O)(=O)Nc2cccc(C(=O)N3CCNCC3)c2)c(C)cc1Cl [Example 46]
q: Arrange items by their AC50 values in increasing order. I would appreciate it if you listed the labels in the requested order.
a: I, III, II, IV, V

---

Subject of test: wild type human POLγ (POLγA:WT) (Homo sapiens)
Sequence (P54098 1-1239): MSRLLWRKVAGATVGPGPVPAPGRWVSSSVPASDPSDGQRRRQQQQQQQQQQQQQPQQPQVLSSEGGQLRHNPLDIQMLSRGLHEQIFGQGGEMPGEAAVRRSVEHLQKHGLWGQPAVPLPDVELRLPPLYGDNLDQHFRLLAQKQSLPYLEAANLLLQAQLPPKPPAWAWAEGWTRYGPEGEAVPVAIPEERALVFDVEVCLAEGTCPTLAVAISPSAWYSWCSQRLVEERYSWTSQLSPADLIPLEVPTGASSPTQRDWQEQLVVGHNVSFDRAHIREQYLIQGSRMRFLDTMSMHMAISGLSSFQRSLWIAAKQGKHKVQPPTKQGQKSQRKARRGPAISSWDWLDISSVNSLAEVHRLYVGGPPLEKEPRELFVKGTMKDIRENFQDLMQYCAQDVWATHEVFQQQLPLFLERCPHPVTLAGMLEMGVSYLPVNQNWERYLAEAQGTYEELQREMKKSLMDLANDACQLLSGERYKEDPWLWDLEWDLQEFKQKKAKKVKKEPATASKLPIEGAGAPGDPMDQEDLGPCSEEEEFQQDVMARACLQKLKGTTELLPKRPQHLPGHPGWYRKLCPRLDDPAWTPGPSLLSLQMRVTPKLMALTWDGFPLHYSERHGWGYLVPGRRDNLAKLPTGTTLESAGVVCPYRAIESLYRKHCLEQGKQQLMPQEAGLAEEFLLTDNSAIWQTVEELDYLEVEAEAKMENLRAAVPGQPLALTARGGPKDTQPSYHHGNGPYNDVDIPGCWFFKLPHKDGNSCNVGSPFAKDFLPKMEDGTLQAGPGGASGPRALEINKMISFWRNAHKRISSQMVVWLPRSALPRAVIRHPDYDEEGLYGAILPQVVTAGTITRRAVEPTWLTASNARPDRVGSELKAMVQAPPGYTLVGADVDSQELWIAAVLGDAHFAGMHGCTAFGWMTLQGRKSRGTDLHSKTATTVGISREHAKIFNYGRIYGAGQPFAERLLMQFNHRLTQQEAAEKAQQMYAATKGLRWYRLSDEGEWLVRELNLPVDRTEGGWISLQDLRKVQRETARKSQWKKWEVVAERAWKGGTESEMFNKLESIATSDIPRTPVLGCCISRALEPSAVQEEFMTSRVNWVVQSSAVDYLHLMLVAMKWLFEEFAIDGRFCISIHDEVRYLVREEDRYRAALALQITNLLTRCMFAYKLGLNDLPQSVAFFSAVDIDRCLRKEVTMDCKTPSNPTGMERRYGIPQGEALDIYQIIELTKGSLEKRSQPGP
Sequence (Q9UHN1 1-485 partner): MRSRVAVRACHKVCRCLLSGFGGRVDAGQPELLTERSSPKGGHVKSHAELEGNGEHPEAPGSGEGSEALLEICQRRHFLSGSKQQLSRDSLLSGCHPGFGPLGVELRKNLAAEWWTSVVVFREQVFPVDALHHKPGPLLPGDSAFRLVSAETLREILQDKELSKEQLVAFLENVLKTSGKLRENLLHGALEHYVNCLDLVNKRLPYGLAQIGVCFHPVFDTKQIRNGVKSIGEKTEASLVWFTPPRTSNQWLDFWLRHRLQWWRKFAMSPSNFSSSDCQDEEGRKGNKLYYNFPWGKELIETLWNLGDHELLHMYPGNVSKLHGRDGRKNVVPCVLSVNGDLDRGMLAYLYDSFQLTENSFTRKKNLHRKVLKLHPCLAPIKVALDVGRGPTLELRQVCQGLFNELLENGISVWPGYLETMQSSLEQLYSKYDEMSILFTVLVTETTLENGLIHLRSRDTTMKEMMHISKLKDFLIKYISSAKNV
Experiment description: DNA polymerization assay, wild type POLγ
Format: biochemical
Measurement conditions: 100 μM dNTP, read-out: WT AC50 (μM) at 100 μM
Observed property: AC50 (µM)

// worked examples, AC50 included
Chem smiles	Observed property	Unit descriptor	Result
Cc1ccc(C)c(S(=O)(=O)Nc2cccc(C(=O)N3CCCC[C@@H]3C)c2)c1	AC50	µM	4
Cc1cc(S(=O)(=O)Nc2csc(C(=O)N3CCC[C@H]3C)n2)c(C)cc1Cl	AC50	µM	0.1

(P) Cc1cc(S(=O)(=O)Nc2ccc3ccn(C(C)C)c3c2)c(C)cc1Cl
(Q) Cc1cc(S(=O)(=O)Nc2cccc(C(=O)N3CCC[C@H]3C)c2)c(C)cc1Cl
q: Kindly compare P with Q and tell me which has the lower AC50 figure. Choose, then provide that item's label.
a: Q
(Q: 0.5 µM, P: 1 µM)

---

Subject of test: POLγA:A467T (Homo sapiens, UniProt P54098, A467T)
Sequence (P54098 1-1239 A467T): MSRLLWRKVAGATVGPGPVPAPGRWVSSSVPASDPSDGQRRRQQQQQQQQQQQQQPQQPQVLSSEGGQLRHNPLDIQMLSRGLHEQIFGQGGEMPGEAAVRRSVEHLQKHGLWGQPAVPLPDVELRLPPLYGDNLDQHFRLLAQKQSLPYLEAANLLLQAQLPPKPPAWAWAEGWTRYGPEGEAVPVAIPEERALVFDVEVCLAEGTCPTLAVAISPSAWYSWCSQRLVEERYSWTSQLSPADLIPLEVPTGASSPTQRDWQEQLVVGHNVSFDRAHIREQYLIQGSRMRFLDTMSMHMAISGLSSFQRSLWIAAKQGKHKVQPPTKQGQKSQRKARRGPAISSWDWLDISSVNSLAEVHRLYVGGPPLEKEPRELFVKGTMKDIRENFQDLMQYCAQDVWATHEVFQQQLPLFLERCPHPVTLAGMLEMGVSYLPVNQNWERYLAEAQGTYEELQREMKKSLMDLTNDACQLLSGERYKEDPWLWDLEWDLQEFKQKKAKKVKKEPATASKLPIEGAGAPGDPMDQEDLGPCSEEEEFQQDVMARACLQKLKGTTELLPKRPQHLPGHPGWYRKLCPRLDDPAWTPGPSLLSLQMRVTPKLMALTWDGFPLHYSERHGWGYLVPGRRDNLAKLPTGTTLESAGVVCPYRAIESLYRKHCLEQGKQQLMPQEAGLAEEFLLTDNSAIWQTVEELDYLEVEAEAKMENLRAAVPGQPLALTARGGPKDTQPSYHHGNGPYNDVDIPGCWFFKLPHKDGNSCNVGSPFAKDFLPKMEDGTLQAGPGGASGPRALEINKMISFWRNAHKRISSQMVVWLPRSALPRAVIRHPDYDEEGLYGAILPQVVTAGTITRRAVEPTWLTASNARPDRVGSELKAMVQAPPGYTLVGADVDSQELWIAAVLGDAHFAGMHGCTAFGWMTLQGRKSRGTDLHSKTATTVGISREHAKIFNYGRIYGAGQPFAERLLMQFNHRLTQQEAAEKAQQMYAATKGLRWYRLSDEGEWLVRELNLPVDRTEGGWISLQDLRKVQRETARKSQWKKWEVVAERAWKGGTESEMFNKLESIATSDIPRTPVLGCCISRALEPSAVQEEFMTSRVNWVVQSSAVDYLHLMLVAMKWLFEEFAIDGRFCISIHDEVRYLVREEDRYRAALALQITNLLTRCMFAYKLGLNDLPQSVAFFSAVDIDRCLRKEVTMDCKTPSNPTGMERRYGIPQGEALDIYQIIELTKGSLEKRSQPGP
Sequence (Q9UHN1 1-485 partner): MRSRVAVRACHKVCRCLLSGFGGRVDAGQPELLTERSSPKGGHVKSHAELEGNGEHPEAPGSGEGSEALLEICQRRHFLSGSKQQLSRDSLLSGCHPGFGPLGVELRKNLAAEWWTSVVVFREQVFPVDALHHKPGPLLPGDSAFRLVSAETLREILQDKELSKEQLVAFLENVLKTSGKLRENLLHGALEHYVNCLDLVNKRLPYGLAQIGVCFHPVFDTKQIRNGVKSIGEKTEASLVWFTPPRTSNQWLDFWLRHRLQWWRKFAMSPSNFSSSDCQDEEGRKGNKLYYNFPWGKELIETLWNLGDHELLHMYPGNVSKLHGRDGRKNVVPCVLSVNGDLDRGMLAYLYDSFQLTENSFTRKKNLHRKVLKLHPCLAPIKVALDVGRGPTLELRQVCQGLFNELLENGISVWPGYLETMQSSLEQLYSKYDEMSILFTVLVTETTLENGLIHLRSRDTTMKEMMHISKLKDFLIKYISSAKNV
Experiment description: DNA polymerization assay, POLγA:A467T mutant
Type: biochemical
Measurement conditions: stimulation of polymerase activity, primed M13mp18 ssDNA, 37° C. 2 hours; read-out: A467T AC50
Observed property: AC50

// worked examples, AC50 included
Compound	Result
CC[C@@H]1CCCN1C(=O)c1cccc(NS(=O)(=O)c2cc(C)c(Cl)cc2C)c1 [Example 65]	15 µM
Cc1cc(S(=O)(=O)Nc2csc(C(=O)N3CCC[C@H]3C)n2)c(C)cc1Cl [Example 174]	2 µM
Cc1cc(S(=O)(=O)N[C@H]2CCCN(c3ccccc3)C2)c(C)cc1Cl [Example 161]	> 100 µM
Cc1cc(S(=O)(=O)Nc2cccc(C(=O)N3CCN(CCO)CC3)c2)c(C)cc1Cl [Example 55]	> 100 µM
Cc1cc(S(=O)(=O)Nc2csc(C(=O)N(CC(N)=O)C3CCCCC3)n2)c(C)cc1Cl [Example 179]	> 100 µM

q: Which AC50 is reported for this compound? Cc1cc(S(=O)(=O)Nc2csc(-n3cccn3)n2)c(C)cc1Cl [Example 178]
a: > 100 µM

q: Which AC50 is reported for this compound? Cc1cc(S(=O)(=O)Nc2ccc3nc(-c4ccccc4)sc3c2)c(C)cc1Cl [Example 74]
a: > 100 µM

q: Which AC50 is reported for this compound? Cc1cc(S(=O)(=O)Nc2cccc(C(=O)N3CCNCC3)c2)c(C)cc1Cl [Example 46]
a: > 100 µM

q: Which AC50 is reported for this compound? Cc1cc(S(=O)(=O)Nc2cccc(C(=O)N(C)C(C)CO)c2)c(C)cc1Cl (single isomer, unassigned) [Example 14]
a: 28 µM

q: Which AC50 is reported for this compound? Cc1cc(S(=O)(=O)Nc2cccc(C(=O)N(C)c3ccccn3)c2)c(C)cc1Cl [Example 109]
a: > 100 µM

q: Which AC50 is reported for this compound? Cc1cc(S(=O)(=O)N[C@H]2CCCN(C(=O)c3ccccc3)C2)c(C)cc1Cl [Example 129]
a: > 100 µM

q: Which AC50 is reported for this compound? Cc1cc(S(=O)(=O)Nc2ccc(F)c(-c3nccs3)c2)c(C)cc1Cl [Example 63]
a: > 100 µM

q: Which AC50 is reported for this compound? Cc1cc(S(=O)(=O)NC2CCOc3c(Cl)cccc32)c(C)cc1Cl (centres unmarked) [Example 82]
a: > 100 µM

q: Which AC50 is reported for this compound? Cc1ccc(C)c(S(=O)(=O)Nc2cccc(C(=O)NCC3CC3)c2)c1 [Example 4]
a: 52 µM

q: Which AC50 is reported for this compound? Cc1cc(S(=O)(=O)Nc2cccc(C(=O)N3CCN(C)C[C@H]3C)c2)c(C)cc1Cl [Example 54]
a: > 100 µM

Source: patent US20260138961A1
